# Tested on: IGROV1 ovarian
# protocol_text: NCI tumour cell line growth inhibition, 48 h
property: TGI

Some compounds with recorded TGI:
INSERT INTO assay_data (molecule_smiles, assay_result) VALUES
  ('C#C[C@]1(O)CC[C@H]2[C@@H]3CC=C4c5sc(Nc6ccc(Cl)cn6)nc5CC[C@]4(C)[C@H]3CC[C@@]21C', '> 100 µM'),
  ('O=C(NCc1ncc[nH]1)c1ccc(-c2nc3ccc4[nH]ncc4c3c3c2CCCC3)cc1', '7.64 µM'),
  ('C/C(=C(/c1ccc(O)cc1)c1ccc(OCCN(C)C)cc1)c1ccc(Cl)cc1', '> 100 µM');

Now take the following compound into account.
Notebook: `Cc1ccccc1NC(=O)Nc1nc2ccc([N+](=O)[O-])cc2s1` , TGI read as 13.4 µM

###

# System: CAKI-1 renal
# protocol_text: NCI tumour cell line growth inhibition, 48 h
property: TGI

INSERT INTO results (molecule_smiles, property, assay_result) VALUES
  ('Cc1ccccc1NC(=O)Nc1nc2ccc([N+](=O)[O-])cc2s1', 'TGI', '4.02 µM');

get_value(item= `C/C(=C(/c1ccc(O)cc1)c1ccc(OCCN(C)C)cc1)c1ccc(Cl)cc1` , readout=TGI) returns 40.9 µM

What the record says about `C#C[C@]1(O)CC[C@H]2[C@@H]3CC=C4c5sc(Nc6ccc(Cl)cn6)nc5CC[C@]4(C)[C@H]3CC[C@@]21C` : TGI is > 100 µM

Record summary for `O=C(NCc1ncc[nH]1)c1ccc(-c2nc3ccc4[nH]ncc4c3c3c2CCCC3)cc1` : reported TGI = 4.8 µM
